Source: patent US11638706B2

Quick reference: pIC50 of the listed items.
- System: Huntingtin protein (HTT)
- ASSAY_NAME: Endogenous Huntingtin Protein Assay (MSD electrochemiluminescence ELISA; MW1 or MAB2166 capture, #5656S detection)
- Format: cell-based, human
- Text: The Endogenous Huntingtin Protein assay used in Example 2 was developed using the Best Pair antibodies identified in Table 2, providing highly sensitive, high-throughput detection assays for polyglutamine-expanded (mHTT) and total human HTT in multiple cell systems. The platform used for the assay is the ELISA-based Meso Scale Discovery (MSD) electrochemiluminescence assay platform. […]
pIC50: −log10 of the molar value.

[[record]]
compound = "Oc1cc(-c2cn[nH]c2)ccc1-c1ccc(N2CC3(CCNC3)C2)nn1"
measured_value = "5.05 to 5.52"

[[record]]
compound = "CN(c1ccc(-c2ccc(-n3cc([N+](=O)[O-])cn3)cc2O)nn1)C1CC(C)(C)NC(C)(C)C1"
measured_value = "≥ 7.00"

[[record]]
compound = "CN(c1ccc(-c2ccc(-c3ccnc(O)c3)cc2O)nn1)C1CC(C)(C)NC(C)(C)C1"
measured_value = "≥ 7.00"

[[record]]
compound = "CN(c1ccc(-c2cc3cnccc3cc2O)nn1)C1CC(C)(C)NC(C)(C)C1"
measured_value = "≥ 7.00"

[[record]]
compound = "CC1(C)CC(Oc2ccc(-c3ccc(-n4ccnc4)cc3O)nn2)CC(C)(C)N1"
measured_value = "≥ 7.00"


## Input Value lookup for pIC50; key = CN(c1ccc(-c2ccc(-c3cnn(C)c3)cc2O)nn1)C1CC(C)(C)NC(C)(C)C1
## Output ≥ 7.00

## Input Value lookup for pIC50; key = CN(c1ccc(-c2ccc(-c3cn[nH]c3)cc2Cl)nn1)C1CC(C)(C)NC(C)(C)C1
## Output 5.05 to 5.52

## Input Value lookup for pIC50; key = Cn1cc(-c2ccc(-c3ccc(OC4CC(C)(C)NC(C)(C)C4)nn3)c(O)c2)cn1
## Output ≥ 7.00

## Input Value lookup for pIC50; key = CC1(C)CC(Oc2ccc(-c3cc(-c4cn[nH]c4)cs3)nn2)CC(C)(C)N1
## Output 5.05 to 5.52

## Input Value lookup for pIC50; key = Oc1cc(-c2cn[nH]c2)ccc1-c1ccc(OC2C[C@H]3CC[C@@H](C2)N3)nn1 (stereo partly shown)
## Output ≥ 7.00

## Input Value lookup for pIC50; key = CN(c1ccc(-c2cc3cccnc3cc2O)nn1)C1CC(C)(C)NC(C)(C)C1
## Output 6.30 to 7.00

## Input Value lookup for pIC50; key = Oc1cc(-c2cn[nH]c2)ccc1-c1ccc(NC2C[C@H]3CC[C@@H](C2)N3)nn1 (stereo partly shown) [Cpd 412]
## Output ≥ 7.00

## Input Value lookup for pIC50; key = CN(c1nnc(-c2ccc(-c3cnn(C)c3)cc2O)s1)C1CC(C)(C)NC(C)(C)C1
## Output ≥ 7.00

## Input Value lookup for pIC50; key = COc1nc(-c2cn[nH]c2)ccc1-c1ccc(N(C)C2CC(C)(C)NC(C)(C)C2)nn1
## Output 6.00 to 6.30

## Input Value lookup for pIC50; key = CC1(C)CC(Oc2ccc(-c3ccc(-c4cn[nH]c4)cc3)nn2)CC(C)(C)N1
## Output 6.00 to 6.30

## Input Value lookup for pIC50; key = CCN1CC=C(c2ccc(-c3ccc(-c4cn[nH]c4)cc3O)nn2)CC1
## Output 6.30 to 7.00

## Input Value lookup for pIC50; key = CN(c1ccc(-c2cc3ccncc3cc2O)nn1)C1CC(C)(C)NC(C)(C)C1
## Output ≥ 7.00

## Input Value lookup for pIC50; key = Cn1cc2cc(-c3ccc(OC4CC(C)(C)NC(C)(C)C4)nn3)ccc2n1
## Output 5.05 to 5.52

## Input Value lookup for pIC50; key = CN(c1ccc(-c2ccc(-c3cn[nH]c3)cc2C(F)F)nn1)C1CC(C)(C)NC(C)(C)C1
## Output 5.05 to 5.52

## Input Value lookup for pIC50; key = Oc1cc(-c2cn[nH]c2)ccc1-c1ccc(N2CC3(CCNCC3)C2)nn1
## Output 5.52 to 6.00

## Input Value lookup for pIC50; key = CC1CC(Oc2ccc(-c3ccc(-c4cn[nH]c4)cc3O)nn2)CC(C)N1 (stereo not shown)
## Output 6.00 to 6.30

## Input Value lookup for pIC50; key = CN(c1nnc(Oc2cccc(-c3cn[nH]c3)c2)s1)C1CC(C)(C)NC(C)(C)C1
## Output 5.05 to 5.52
